- Test system: Alopecurus myosuroides
- ASSAY PROTOCOL: Post-emergence herbicidal activity against ALOMY
- Type: in vivo
- CONDITION SET: Alopecurus myosuroides, 504 h, dosage 320 g/ha, rated visually after about 3 weeks
MEASUREMENT TYPE: pest or weed control at 320 g/ha (%)
Numbers only, in %.

Each compound below has a recorded value; state its pest or weed control at 320 g/ha.
1. C=CC1(C(=O)N[C@@H]2CO[C@H](C(=O)N3CCCC3)C2)CC(c2cc(F)cc(F)c2)=NO1 (relative stereo)
2. CONC(=O)[C@@H]1C[C@H](NC(=O)C2(C)CC(c3cccc(F)c3)=NO2)CO1 (relative stereo)

OUT:
90
100

Each compound below has a recorded value; state its pest or weed control at 320 g/ha.
1. CNC(=O)[C@@H]1C[C@H](NC(=O)C2(C)CC(c3cc(F)cc(F)c3)=NO2)CO1 (relative stereo)
2. CC1(C(=O)N[C@@H]2CO[C@H](C(=O)NC3CC3)C2)CC(c2cc(F)cc(F)c2)=NO1 (relative stereo)
3. C=C[C@]1(C(=O)N[C@@H]2CO[C@H](C(=O)NOC)C2)CC(c2cc(F)cc(F)c2)=NO1 (mixture of isomers)
4. C=CC1(C(=O)N[C@@H]2CO[C@H](C(=O)NC)C2)CC(c2cc(F)cc(F)c2)=NO1 (relative stereo)

OUT:
1. 90
2. 90
3. 90
4. 100

Each compound below has a recorded value; state its pest or weed control at 320 g/ha.
1. C=C[C@]1(C(=O)N[C@@H]2CO[C@H](C(=O)NN(C)C)C2)CC(c2cc(F)cc(F)c2)=NO1 (mixture of isomers)
2. C=C[C@]1(C(=O)N[C@@H]2CO[C@H](C(=O)NS(C)(=O)=O)C2)CC(c2cc(F)cc(F)c2)=NO1 (mixture of isomers)
3. C=C[C@]1(C(=O)N[C@@H]2CO[C@H](C(=O)NOCC)C2)CC(c2cc(F)cc(F)c2)=NO1 (mixture of isomers)
4. C=C[C@]1(C(=O)N[C@@H]2CO[C@H](C(=O)NOC(C)C)C2)CC(c2cc(F)cc(F)c2)=NO1 (mixture of isomers)
5. CC1(C(=O)N[C@@H]2CO[C@H](C(=O)N3CCCC3)C2)CC(c2cc(F)cc(F)c2)=NO1 (relative stereo)
6. C=C[C@]1(C(=O)N[C@@H]2CO[C@H](C(=O)NC3CC3)C2)CC(c2cc(F)cc(F)c2)=NO1 (mixture of isomers)

OUT:
100
90
90
90
80
90
